experimental-protocol: NCI Yeast Anticancer Drug Screen. Data for the rad18 strain (AID 177)
condition-context: S. cerevisiae rad18 mutant growth inhibition; at 1.2 µM; hits give high values
About 79,000 compounds went through this panel and 15% of them were active in at least one assay; those are over-represented in the sample as a whole.
assay-endpoint: growth inhibition (%)
Note: unit % is implicit; provide only the numeric part.

Consider the following illustrative entries.
molecule | assay-endpoint | reported
O=C1NC(=O)c2ccc([N+](=O)[O-])c3cccc1c23 | growth inhibition | 48
COc1ccc(C(=O)Oc2ccccc2Br)cc1 | growth inhibition | 1
CN1CCN(C(=O)/C=C/C(=O)c2ccccc2)CC1 | growth inhibition | 2

(Q) What value of growth inhibition has been recorded for this entry: "CCc1nc2ccc(NCCN(C)C)c3c(=O)c4ccccc4n1c23"
(A) 30

(Q) And for "CSc1nc(C)c(CCOC(C)=O)c(N=P(c2ccccc2)(c2ccccc2)c2ccccc2)n1" ?
(A) 16

(Q) And for "CCCCOP(=O)(CCCP(=O)(OCCCC)OCCCC)OCCCC" ?
(A) -7

(Q) And for "Cc1c(C)c(C)c(CSC(=N)N)c(C)c1C" ?
(A) -56

(Q) And for "COC(=O)Oc1cc(Cl)c(Cl)cc1Cl" ?
(A) 0

(Q) And for "O=c1[nH]c(-c2ccccc2)nc2c1sc1nc3ccccc3n12" ?
(A) -35

(Q) And for "CN1C(=O)c2ccc3ccccc3c2C1=O" ?
(A) 6

(Q) And for CCOC(=O)COc1c(OC)cc(C2C3=C(COC3=O)Oc3cc4c(cc32)OCO4)cc1OC (configuration not stated) ?
(A) 0

(Q) And for "O=C(O)c1cc2ccccc2c2c1C(=O)c1ccccc1-2" ?
(A) 5

(Q) And for "Cc1cc(NCCCCCCCCNc2cc(C)nc3cc(N)ccc23)c2ccc(N)cc2n1" ?
(A) -45

(Q) And for "Cc1sc2ccc3ccccc3c2[n+]1C" ?
(A) 0

(Q) And for "O=c1nc2n(Cc3ccccc3)c3ccccc3nc-2c(=O)[nH]1" ?
(A) 0

(Q) And for "COc1ccc2c(c1)n([O-])c1ccccc1[n+]2=O" ?
(A) 39

(Q) And for "CC1=CC(=C(c2ccc(N)cc2)c2ccc(N)cc2)C=CC1=N" ?
(A) 6
